- targetOrTestSystem: PD-L1 (human)
- Sequence (chain, as listed by the source): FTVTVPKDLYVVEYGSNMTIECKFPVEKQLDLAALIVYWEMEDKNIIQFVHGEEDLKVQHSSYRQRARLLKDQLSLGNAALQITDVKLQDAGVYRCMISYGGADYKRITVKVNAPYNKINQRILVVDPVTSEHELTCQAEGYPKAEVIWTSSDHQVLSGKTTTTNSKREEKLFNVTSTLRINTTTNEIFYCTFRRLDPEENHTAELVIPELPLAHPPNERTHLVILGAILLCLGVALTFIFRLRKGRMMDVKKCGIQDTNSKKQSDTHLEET
- assayProcedure: flow cytometry, cells expressing PD-L1
metric: parental ratio
// no unit string in output, number only

Below, each entry is followed by its recorded parental ratio result.
binder	parental ratio
variant CD80 V22A/L70Q/S121P (Fc fusion) VIHVTKEVKEVATLSCGHNVSAEELAQTRIYWQKEKKMVLTMMSGDMNIWPEYKNRTIFDITNNLSIVIQALRPSDEGTYECVVLKYEKDAFKREHLAEVTLSVKADFPTPSISDFEIPTPNIRRIICSTSGGFPEPHLSWLENGEELNAINTTVSQDPETELYAVSSKLDFNMTTNHSFMCLIKYGHLRVNQTFNWNTTKQEHFPDN	0.07
variant CD80 S44P/L70Q/A91G/T130A (Fc fusion) VIHVTKEVKEVATLSCGHNVSVEELAQTRIYWQKEKKMVLTMMPGDMNIWPEYKNRTIFDITNNLSIVIQALRPSDEGTYECVVLKYEKDGFKREHLAEVTLSVKADFPTPSISDFEIPTSNIRRIICSASGGFPEPHLSWLENGEELNAINTTVSQDPETELYAVSSKLDFNMTTNHSFMCLIKYGHLRVNQTFNWNTTKQEHFPDN	0.07

Attention now turns to another entry.
Query: Item variant CD80 K37E/F59S/L70Q/A91G/T120S/T130A (Fc fusion) VIHVTKEVKEVATLSCGHNVSVEELAQTRIYWQKEKEMVLTMMSGDMNIWPEYKNRTISDITNNLSIVIQALRPSDEGTYECVVLKYEKDGFKREHLAEVTLSVKADFPTPSISDFEIPSSNIRRIICSASGGFPEPHLSWLENGEELNAINTTVSQDPETELYAVSSKLDFNMTTNHSFMCLIKYGHLRVNQTFNWNTTKQEHFPDN has what recorded parental ratio?
Response: 0.08
